Source of measurements: the RNAGym collection of RNA variant scans (doi:10.1021/acssynbio.7b00057)

Catalogue of aptazyme ON/OFF ratio readings, one per entry.
B1: Pistol ribozyme (parent)
chain: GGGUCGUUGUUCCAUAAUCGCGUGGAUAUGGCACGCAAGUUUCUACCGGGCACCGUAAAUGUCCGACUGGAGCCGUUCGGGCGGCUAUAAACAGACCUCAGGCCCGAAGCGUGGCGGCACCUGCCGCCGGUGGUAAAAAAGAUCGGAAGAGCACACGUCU

- Variants of: B1
- procedureText: aptazyme ON/OFF ratio, guanine; higher = stronger switching; co-transcriptional cleavage with and without guanine

>  <mutationId>
U8A G9A U10G U11C C12U C13A

>  <aptazyme ON/OFF ratio>
1.21

$$$$
>  <mutationId>
U7C U8A U10G U11G C12U C13A

>  <aptazyme ON/OFF ratio>
1.21

$$$$
>  <mutationId>
U7A U8A G9C U10G U11A C12A C13G

>  <aptazyme ON/OFF ratio>
1.12

$$$$
>  <mutationId>
U7G U8C U10A U11C C13U

>  <aptazyme ON/OFF ratio>
1.04

$$$$
>  <mutationId>
G9C U11G C13A

>  <aptazyme ON/OFF ratio>
1.23

$$$$
>  <mutationId>
U7A U8A G9A U10C U11G C12G C13G

>  <aptazyme ON/OFF ratio>
1.15

$$$$
>  <mutationId>
G9A U10A U11A C12G C13U

>  <aptazyme ON/OFF ratio>
1.23

$$$$
>  <mutationId>
U10A U11G C13U

>  <aptazyme ON/OFF ratio>
1.37

$$$$
>  <mutationId>
U8G U10G U11G C13U

>  <aptazyme ON/OFF ratio>
1.19

$$$$
>  <mutationId>
U8C G9C U10A U11C C12A C13U

>  <aptazyme ON/OFF ratio>
1.22

$$$$
>  <mutationId>
U7C G9C U10C U11C C13U

>  <aptazyme ON/OFF ratio>
1.01

$$$$
>  <mutationId>
U7A G9A U10G U11G C12U C13U

>  <aptazyme ON/OFF ratio>
1.26

$$$$
>  <mutationId>
U7A U8G G9U U10A U11A

>  <aptazyme ON/OFF ratio>
2.58

$$$$
>  <mutationId>
U7C U8G G9A U10A C12U C13G

>  <aptazyme ON/OFF ratio>
1.17

$$$$
>  <mutationId>
U7C G9A U11A C12A C13U

>  <aptazyme ON/OFF ratio>
1.21

$$$$
>  <mutationId>
G9C U10A U11G C13U

>  <aptazyme ON/OFF ratio>
1.35

$$$$
>  <mutationId>
U7C U8A U10G U11C C12U C13A

>  <aptazyme ON/OFF ratio>
1.35

$$$$
>  <mutationId>
U8A G9A U10C U11G C12A C13A

>  <aptazyme ON/OFF ratio>
1.19

$$$$
>  <mutationId>
G9A U10C U11A C12A

>  <aptazyme ON/OFF ratio>
1.67

$$$$
>  <mutationId>
U7G U8G G9A U10A U11C C12G C13G

>  <aptazyme ON/OFF ratio>
1.22

$$$$
>  <mutationId>
U8C U10A U11G C12A

>  <aptazyme ON/OFF ratio>
1.06

$$$$
>  <mutationId>
U7G U8G G9U U11A C12G

>  <aptazyme ON/OFF ratio>
1.29

$$$$
>  <mutationId>
U7G U8C U10G C13A

>  <aptazyme ON/OFF ratio>
1.24

$$$$
>  <mutationId>
U7A U8G G9A C12U C13U

>  <aptazyme ON/OFF ratio>
1.04

$$$$
>  <mutationId>
G9A U10C C12U C13G

>  <aptazyme ON/OFF ratio>
1.27

$$$$
>  <mutationId>
U10C U11A C13U

>  <aptazyme ON/OFF ratio>
1.23

$$$$
>  <mutationId>
U7A U8C G9A U10A U11A C12U C13G

>  <aptazyme ON/OFF ratio>
1.11

$$$$
>  <mutationId>
U8A G9A U10A U11C C12A C13A

>  <aptazyme ON/OFF ratio>
1.19

$$$$
>  <mutationId>
U7G U8G G9C U10A U11G C12G C13U

>  <aptazyme ON/OFF ratio>
1.06

$$$$
>  <mutationId>
U7C U10G U11C C12G C13U

>  <aptazyme ON/OFF ratio>
1.28

$$$$
>  <mutationId>
U7C U8C G9A U10A U11A C12A C13G

>  <aptazyme ON/OFF ratio>
1.16

$$$$
>  <mutationId>
U7C U8G G9U U11C C12A

>  <aptazyme ON/OFF ratio>
1.41

$$$$
>  <mutationId>
U7C U10A U11C C12U C13A

>  <aptazyme ON/OFF ratio>
1.05

$$$$
>  <mutationId>
U7G G9C U11G C12U

>  <aptazyme ON/OFF ratio>
1.43

$$$$
>  <mutationId>
U7A U8A U10A C12G C13A

>  <aptazyme ON/OFF ratio>
1.14

$$$$
>  <mutationId>
U7G U8A U10C C12G C13U

>  <aptazyme ON/OFF ratio>
1.31

$$$$
>  <mutationId>
U7C U8G U10G U11C

>  <aptazyme ON/OFF ratio>
1.09

$$$$
>  <mutationId>
U8G G9A U10G U11C C12A

>  <aptazyme ON/OFF ratio>
1.19

$$$$
>  <mutationId>
U7C U8C G9U U10A C13G

>  <aptazyme ON/OFF ratio>
1.09

$$$$
>  <mutationId>
U7C U8G G9A U11C C12U

>  <aptazyme ON/OFF ratio>
1.11

$$$$
>  <mutationId>
U7C U8G G9U U11G

>  <aptazyme ON/OFF ratio>
1.2

$$$$
>  <mutationId>
U7G U8A U10G U11A C12A

>  <aptazyme ON/OFF ratio>
1.16

$$$$
>  <mutationId>
U7A U8G G9A U10C U11A C13A

>  <aptazyme ON/OFF ratio>
1.16

$$$$
>  <mutationId>
U7A U8C G9C U10A U11A C13G

>  <aptazyme ON/OFF ratio>
1.06

$$$$
>  <mutationId>
U8C G9U U10C C12A C13A

>  <aptazyme ON/OFF ratio>
1.1

$$$$
>  <mutationId>
U8A G9A U10A U11C

>  <aptazyme ON/OFF ratio>
1.05

$$$$
